target: C. difficile toxin B from strain VPI10463 (ATCC 43255), toxinotype 0 (Clostridium difficile, UniProt P18177 2-2366); experiment: cell-based or functional assay
Sequence (P18177 2-2366 limits assumed): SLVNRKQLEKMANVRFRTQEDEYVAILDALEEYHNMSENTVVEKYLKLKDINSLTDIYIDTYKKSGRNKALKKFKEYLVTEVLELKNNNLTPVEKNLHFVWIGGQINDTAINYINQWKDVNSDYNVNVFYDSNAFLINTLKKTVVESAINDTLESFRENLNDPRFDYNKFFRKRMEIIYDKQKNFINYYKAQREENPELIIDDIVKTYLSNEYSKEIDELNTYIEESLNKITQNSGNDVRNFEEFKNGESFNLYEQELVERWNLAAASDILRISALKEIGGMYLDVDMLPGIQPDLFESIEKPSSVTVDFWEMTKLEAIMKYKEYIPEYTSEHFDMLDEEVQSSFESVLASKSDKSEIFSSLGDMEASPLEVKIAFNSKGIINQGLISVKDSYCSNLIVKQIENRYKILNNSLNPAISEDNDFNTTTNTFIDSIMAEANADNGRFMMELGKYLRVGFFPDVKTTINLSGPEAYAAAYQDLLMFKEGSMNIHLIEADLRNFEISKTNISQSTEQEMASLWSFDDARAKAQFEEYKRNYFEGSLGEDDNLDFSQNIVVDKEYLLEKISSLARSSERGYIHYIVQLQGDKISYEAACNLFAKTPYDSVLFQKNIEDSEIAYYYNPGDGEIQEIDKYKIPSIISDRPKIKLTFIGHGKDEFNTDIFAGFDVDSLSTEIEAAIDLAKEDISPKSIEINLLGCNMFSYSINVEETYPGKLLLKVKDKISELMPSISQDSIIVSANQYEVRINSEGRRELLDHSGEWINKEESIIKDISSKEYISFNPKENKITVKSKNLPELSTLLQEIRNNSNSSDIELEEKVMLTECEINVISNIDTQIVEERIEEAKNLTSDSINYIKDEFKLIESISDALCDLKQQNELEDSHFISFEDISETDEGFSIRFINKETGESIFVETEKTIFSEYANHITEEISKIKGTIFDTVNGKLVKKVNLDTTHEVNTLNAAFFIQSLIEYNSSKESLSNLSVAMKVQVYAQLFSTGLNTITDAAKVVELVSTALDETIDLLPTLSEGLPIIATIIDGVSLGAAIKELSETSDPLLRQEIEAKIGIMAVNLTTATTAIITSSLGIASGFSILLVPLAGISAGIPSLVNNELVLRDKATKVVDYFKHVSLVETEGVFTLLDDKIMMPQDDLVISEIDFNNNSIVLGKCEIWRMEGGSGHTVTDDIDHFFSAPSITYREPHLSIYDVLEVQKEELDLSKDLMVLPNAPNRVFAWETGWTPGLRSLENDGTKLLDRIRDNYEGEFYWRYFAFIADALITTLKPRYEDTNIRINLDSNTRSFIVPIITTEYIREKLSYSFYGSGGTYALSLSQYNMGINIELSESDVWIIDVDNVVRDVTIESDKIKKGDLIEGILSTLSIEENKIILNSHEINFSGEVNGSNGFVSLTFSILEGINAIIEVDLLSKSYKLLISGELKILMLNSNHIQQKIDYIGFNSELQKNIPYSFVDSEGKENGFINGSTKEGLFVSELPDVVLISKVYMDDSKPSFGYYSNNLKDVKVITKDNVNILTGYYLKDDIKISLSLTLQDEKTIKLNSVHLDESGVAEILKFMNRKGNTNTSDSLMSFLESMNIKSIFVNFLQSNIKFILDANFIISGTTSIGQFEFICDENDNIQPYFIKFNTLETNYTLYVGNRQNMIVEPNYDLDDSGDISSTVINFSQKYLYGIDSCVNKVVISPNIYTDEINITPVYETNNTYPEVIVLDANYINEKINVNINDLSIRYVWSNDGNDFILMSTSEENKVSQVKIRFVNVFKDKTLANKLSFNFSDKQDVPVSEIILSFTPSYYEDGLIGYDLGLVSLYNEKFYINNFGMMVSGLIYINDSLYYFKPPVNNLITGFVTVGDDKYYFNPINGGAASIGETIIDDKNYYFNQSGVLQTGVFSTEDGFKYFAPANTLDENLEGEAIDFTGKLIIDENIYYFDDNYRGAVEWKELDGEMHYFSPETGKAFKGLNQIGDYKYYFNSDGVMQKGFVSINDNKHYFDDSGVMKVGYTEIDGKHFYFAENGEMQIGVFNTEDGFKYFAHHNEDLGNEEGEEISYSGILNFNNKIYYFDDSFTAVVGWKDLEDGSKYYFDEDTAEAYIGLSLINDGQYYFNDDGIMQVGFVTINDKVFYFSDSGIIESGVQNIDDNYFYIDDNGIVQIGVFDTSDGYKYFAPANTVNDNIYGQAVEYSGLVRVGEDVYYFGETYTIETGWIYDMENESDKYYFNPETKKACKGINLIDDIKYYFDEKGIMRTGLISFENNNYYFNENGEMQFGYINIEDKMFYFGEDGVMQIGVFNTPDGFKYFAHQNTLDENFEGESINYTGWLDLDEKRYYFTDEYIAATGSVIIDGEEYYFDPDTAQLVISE
measured_parameter: TEER NT50 (T-84 cells)

Guide cases for TEER NT50 (T-84 cells), answers given:
binder	TEER NT50 (T-84 cells)
B3 antibody (antibody, V domains shown) VH: EVQLVESGGGLVQPGGSLRLSCSASGFTFRSYWMHWVRQVPGKGLVWVSCINKEGSSTTYADSVKGRFTISRDNAKNTLYLQMNSLRADDTAVYYCLRGYDVDYWGQGTLVTVSS VL: QAVLTQPSSLSASPGASVSLTCTLRSGVNVGSYRIYWYQQKPGSPPRYLLRYKSGLDKHQGSGVPSRFSGSKDDSANAGILFISGLQSENDADYYCLIWHNSAVVFGGGTKLTVLG	600
B4 antibody (antibody, V domains shown) VH: EVQLVESGGGLVKPGGSLRVSCAASGFTFSSYSMNWIRQAPGKGLEWVSSISSNSSYIYYADSVKGRFTISRDNAKNSLYLQMNSLRAEDTAVYYCARDRDYSNYLTAWGQGTLVTVSS VL: QSVLTQPPSVSGAPGQRVTISCTGSSSNIGAGYDVHWYRQLPGTAPKLLIYGKNNRPSGVPNRFSGSKSGTSASLAITGLQAEDEADYYCQSYDSSLSGSVFGGGTKLTVLG	130
B1 antibody (antibody, V domains shown) VH: EVQLVESGGGLVQPGGSLRLSCAASGFTFRSYWMHWVRQVPGKGLVWVSCINKEGSSTTYADSVKGRFTISRDNAKNTLYLEMNSLRADDTAVYYCLRGYDVDYWGQGTLVTVSS VL: QAVLTQPSSLSASPGASVSLTCTLRSGINVGTYRIYWYQQKPGSPPRYLLRYKSGLDKHQGSGVPSRFSGSKDDSANAGILFISGLQSEDEADYYCLIWHSSAVVFGGGTKLTVLG	270

Turning now to a further record.
## Input Give the measured TEER NT50 (T-84 cells) of B6 antibody (antibody, V domains shown) VH: EVQLVESGGGLVQPGGSLRLSCAASGFTFTTSTMNWVRQAPGKGLEWVSYITRTSTVIYYADSVKGRFTISRDNAKNSLYLQMSSLRAEDTAVYYCARGVRDIGGNGFDYWGQGTLVTVSS VL: EIVLTQSPGTLSLSPGERATLSCRASQSVTSSYLAWYQQKTGQAPRLLIYGASSRATGIPDRFSGSGSGTDFTLTIARLEPEDFAVYYCQQYGSSPPYTFGQGTKLEIKR .
## Output 100
